Target desc: Cyclin-dependent kinase 2 (Homo sapiens)
Test protocol: Inhibition of CDK2 (unknown origin) after 4 hrs
Value type: IC50

Report IC50 for FC(F)(F)c1cnc(N[C@H]2CCCNC2)nc1-c1n[nH]c2ccccc12 tested on Cyclin-dependent kinase 2 (Homo sapiens).
> 200 nM

----------
Target desc: Cyclin-dependent kinase 4 (Homo sapiens, UniProt P11802)
Sequence (P11802 whole entry): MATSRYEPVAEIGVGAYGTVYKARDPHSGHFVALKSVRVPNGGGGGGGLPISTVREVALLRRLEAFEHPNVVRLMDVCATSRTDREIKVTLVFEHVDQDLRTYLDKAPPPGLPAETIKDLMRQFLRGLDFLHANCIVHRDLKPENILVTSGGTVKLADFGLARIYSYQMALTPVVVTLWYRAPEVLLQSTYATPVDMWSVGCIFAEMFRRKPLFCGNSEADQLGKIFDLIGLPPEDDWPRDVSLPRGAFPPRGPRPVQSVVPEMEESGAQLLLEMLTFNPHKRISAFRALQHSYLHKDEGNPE
Test protocol: Inhibition of CDK4 (unknown origin)
Value type: IC50

# Compound, Target desc, IC50
measured = [
    ("CC(C)c1cnn2c(NCc3ccccc3N(C)C)nc(OC3CCN(C)CC3)nc12", "Cyclin-dependent kinase 4 (Homo sapiens, UniProt P11802)", "> 10 µM"),
]

Now look at this one.
Entry CC(C)c1cnn2c(NCc3ccccc3-n3cccn3)nc(OC3CCCNC3)nc12 (configuration not stated) : reported IC50 = ?
> 10 µM

----------
Target desc: Cyclin-dependent kinase 5 (Homo sapiens, UniProt Q00535)
Sequence (Q00535 whole entry): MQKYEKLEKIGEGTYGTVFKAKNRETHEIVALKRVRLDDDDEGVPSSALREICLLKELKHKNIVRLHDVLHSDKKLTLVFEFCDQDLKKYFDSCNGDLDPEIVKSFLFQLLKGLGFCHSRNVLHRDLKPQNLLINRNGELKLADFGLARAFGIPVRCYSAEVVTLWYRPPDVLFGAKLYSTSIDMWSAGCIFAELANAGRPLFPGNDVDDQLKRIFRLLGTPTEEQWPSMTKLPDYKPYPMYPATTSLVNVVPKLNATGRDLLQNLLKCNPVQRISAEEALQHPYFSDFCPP
Test protocol: Inhibition of CDK5 (unknown origin) by luciferase reporter gene assay
Value type: IC50 (µM)
Give just the number in µM; leave the unit off.

Which IC50 is listed for CC(C)c1cnn2c(NCc3ccccc3)cc(NC[C@@H]3CCNC[C@H]3O)nc12 ?
9

----------
Test system: KOPTK1
Test protocol: Cytotoxicity against human KOPTK1 cells assessed as reduction in cell viability
Type: functional, cell-based
Value type: pIC50
The value called pIC50 is obtained by taking minus log10 of the concentration in mol/L.

I am curious: what pIC50 value has been reported for CN(C)C/C=C/C(=O)Nc1ccc(C(=O)Nc2cccc(Nc3ncc(Cl)c(-c4c[nH]c5ccccc45)n3)c2)cc1 ?
9.00

----------
Target desc: Cyclin-dependent kinase 9 (Homo sapiens, UniProt P50750)
Sequence (P50750 whole entry): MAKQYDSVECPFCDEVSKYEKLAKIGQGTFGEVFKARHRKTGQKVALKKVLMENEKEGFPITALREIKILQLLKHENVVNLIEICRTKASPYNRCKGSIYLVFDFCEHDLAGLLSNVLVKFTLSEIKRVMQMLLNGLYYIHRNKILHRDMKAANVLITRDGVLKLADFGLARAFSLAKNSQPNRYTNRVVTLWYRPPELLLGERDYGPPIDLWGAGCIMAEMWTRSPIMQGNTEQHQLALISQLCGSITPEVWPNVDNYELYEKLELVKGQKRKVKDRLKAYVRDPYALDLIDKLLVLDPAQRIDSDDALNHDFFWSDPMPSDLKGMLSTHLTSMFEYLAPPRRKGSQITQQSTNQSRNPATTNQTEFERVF
Test protocol: Inhibition of CDK9 (unknown origin) after 4 hrs
pIC50: −log10 of the molar value.
Value type: pIC50

# Compound, pIC50
rows = [
    ("Clc1cnc(NC2CCCCC2)nc1-c1c[nH]c2cccnc12", "6.70 to 7.70"),
]

May I ask what pIC50 has been recorded for FC(F)(F)c1cnc(N[C@H]2CCCNC2)nc1-c1n[nH]c2ccccc12 ?
6.70 to 7.70

----------
Tested on: MDA-MB-468
Test protocol: Cytotoxicity against human MDA-MB-468 cells assessed as reduction in cell viability
Type: functional, cell-based
Value type: IC50 (nM)
Please respond with the number in nM and leave the unit unwritten.

Field request: IC50 | item: CC(C)c1cnn2c(NCc3ccccc3)cc(NC[C@@H]3CCNC[C@H]3O)nc12
1500

----------
Target desc: Cyclin-dependent kinase 5 (Homo sapiens, UniProt Q00535)
Value type: IC50 (nM)
Respond numerically; units are nM and should not be typed.

# lookup: IC50 of CN(C)C/C=C/C(=O)Nc1cccc(C(=O)Nc2cccc(Nc3ncc(Cl)c(-c4c[nH]c5ccccc45)n3)c2)c1
222

----------
Target desc: UniProtKB Q00534
Sequence (Q00534 whole entry): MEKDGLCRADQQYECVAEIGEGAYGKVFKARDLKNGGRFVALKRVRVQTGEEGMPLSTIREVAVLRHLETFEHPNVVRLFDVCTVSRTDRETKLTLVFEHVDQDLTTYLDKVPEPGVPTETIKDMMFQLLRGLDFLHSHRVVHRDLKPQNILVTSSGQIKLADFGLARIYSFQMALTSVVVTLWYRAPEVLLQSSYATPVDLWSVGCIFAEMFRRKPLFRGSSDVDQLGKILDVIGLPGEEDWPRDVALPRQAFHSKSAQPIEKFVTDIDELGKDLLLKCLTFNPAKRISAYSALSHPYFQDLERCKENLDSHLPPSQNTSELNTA
Test protocol: Inhibition of CDK6 (unknown origin)
This section presents molecules with their documented IC50 values.

# Molecule, IC50
rows = [
    ("CC(C)c1cnn2c(NCc3ccccc3N(C)C)nc(OC3CCN(C)CC3)nc12", "> 10 µM"),
]

Attention now turns to another entry.
So what does the record say about IC50 for CC(C)c1cnn2c(NCc3ccccc3-n3cccn3)nc(OC3CCCNC3)nc12 (configuration not stated) ?
> 10 µM

----------
Here's a batch of compounds along with measured IC50 for UniProtKB P24941.
Supply the numeric figure in µM, leaving out any unit text.

# Compound, Unit name, IC50
measured = [
    ("CC(C)c1cnn2c(NCc3ccccc3-n3cccn3)nc(OC3CCCNC3)nc12 (configuration not stated)", "µM", 0.0064),
    ("CN(C)C/C=C/C(=O)Nc1cccc(C(=O)Nc2cccc(Nc3ncc(Cl)c(-c4c[nH]c5ccccc45)n3)c2)c1", "µM", 0.0969),
]

Could you now consider this next compound?
Which IC50 is reported for this compound? CC(C)c1cnn2c(NCc3ccccc3N(C)C)nc(OC3CCN(C)CC3)nc12
3.9

----------
Target desc: Cyclin-dependent kinase 4 (Homo sapiens, UniProt P11802)
Test protocol: Inhibition of CDK4 (unknown origin) by luciferase reporter gene assay
Value type: IC50 (µM)
Give just the numeric value; µM need not be written.

Find IC50 (Cyclin-dependent kinase 4 (Homo sapiens, UniProt P11802)) for the entry CC(C)c1cnn2c(NCc3ccccc3)cc(NC[C@@H]3CCNC[C@H]3O)nc12
42

----------
Target desc: Cyclin-dependent kinase 7 (Homo sapiens)
Sequence (P50613 whole entry): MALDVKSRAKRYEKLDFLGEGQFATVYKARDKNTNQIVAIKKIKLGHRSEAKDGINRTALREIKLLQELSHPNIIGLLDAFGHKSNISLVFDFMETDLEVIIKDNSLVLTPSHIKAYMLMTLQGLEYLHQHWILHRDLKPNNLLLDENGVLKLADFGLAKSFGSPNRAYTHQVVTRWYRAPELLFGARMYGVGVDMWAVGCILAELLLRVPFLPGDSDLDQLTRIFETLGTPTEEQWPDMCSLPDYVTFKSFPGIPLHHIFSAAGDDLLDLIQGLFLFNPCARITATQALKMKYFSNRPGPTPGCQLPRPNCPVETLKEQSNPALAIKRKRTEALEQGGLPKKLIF
Test protocol: Inhibition of CDK7 (unknown origin)
pIC50: −log10 of the molar value.
Value type: pIC50

# Compound, Result
measured = [
    ("CN(C)CCCC(=O)Nc1ccc(C(=O)Nc2cccc(Nc3ncc(Cl)c(-c4c[nH]c5ccccc45)n3)c2)cc1", 6.71),
    ("C=CC(=O)Nc1ccc(C(=O)Nc2n[nH]c3c2CN(C(=O)N[C@H](CN(C)C)c2ccccc2)C3(C)C)cc1", "< 7.00"),
    ("CC(C)c1cnn2c(NCc3cccc4c3cnn4C)nc(OC3CCCNC3)nc12 (stereo unspecified)", "> 8.30"),
    ("Clc1cnc(N[C@H]2CCCNC2)nc1-c1c[nH]c2ccccc12", "> 7.70"),
    ("C=CC(=O)Nc1ccc(C(=O)Nc2cccc(Nc3n[nH]c4c3CN(C(=O)N[C@H](CN(C)C)c3ccccc3)C4(C)C)c2)cc1", 7.70),
    ("CC(C)c1cnn2c(NCc3ccccc3-n3cccn3)nc(OC3CCCNC3)nc12 (stereo unspecified)", 9.89),
    ("CN(C)C/C=C/C(=O)Nc1cccc(C(=O)Nc2cccc(Nc3ncc(Cl)c(-c4c[nH]c5ccccc45)n3)c2)c1", 7.57),
    ("C=CC(=O)Nc1ccc(C(=O)Nc2ccc(Nc3n[nH]c4c3CN(C(=O)N[C@H](CN(C)C)c3ccccc3)C4(C)C)cc2)cc1", "> 7.00"),
    ("CC(C)c1cnn2c(NCc3cccc4[nH]ncc34)nc(OC3CCCNC3)nc12 (stereo unspecified)", "> 8.30"),
    ("CC(C)c1cnn2c(NCc3ccccc3N(C)C)nc(OC3CCN(C)CC3)nc12", "> 8.30"),
]

As a next step, examine the compound that follows.
Which pIC50 is reported for this compound? Clc1cnc(N[C@@H]2CCCNC2)nc1-c1c[nH]c2ccccc12
6.70 to 7.70

----------
Test system UniProt:P06493, pIC50 listed for each of the molecules.
Scale: negative log10 of molar concentration, which is what pIC50 denotes.

# Molecule, Target desc, pIC50
records = [
    ("CN(C)C/C=C/C(=O)Nc1cccc(C(=O)Nc2cccc(Nc3ncc(Cl)c(-c4c[nH]c5ccccc45)n3)c2)c1", "UniProt:P06493", 7.86),
]

Now for a further molecule.
Reported pIC50 for CC(C)c1cnn2c(NCc3ccccc3-n3cccn3)nc(OC3CCCNC3)nc12 (stereo not drawn) : what is it?
7.28

----------
Target desc: UniProt:Q00534
Test protocol: Inhibition of CDK6 (unknown origin) by luciferase reporter gene assay
Value type: IC50 (µM)
Field format: number, assumed µM, no unit text.

What does the record list as IC50 for CC(C)c1cnn2c(NCc3ccccc3)cc(NC[C@@H]3CCNC[C@H]3O)nc12 ?
32.1

----------
Target desc: CDK7/Cyclin H/MNAT1 (Homo sapiens, UniProt P50613)
Sequence (P51946 whole entry): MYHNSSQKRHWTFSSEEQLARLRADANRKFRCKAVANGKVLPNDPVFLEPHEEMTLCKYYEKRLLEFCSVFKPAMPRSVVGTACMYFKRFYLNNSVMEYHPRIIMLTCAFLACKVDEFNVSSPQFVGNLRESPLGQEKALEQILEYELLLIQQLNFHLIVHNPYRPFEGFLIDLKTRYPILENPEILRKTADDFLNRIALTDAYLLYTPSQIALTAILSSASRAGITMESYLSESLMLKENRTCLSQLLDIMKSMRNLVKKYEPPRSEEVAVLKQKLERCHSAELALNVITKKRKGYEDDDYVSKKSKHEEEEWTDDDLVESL
Sequence (P50613 whole entry): as the sequence (P50613 whole entry) above
Sequence (P51948 whole entry, further chain): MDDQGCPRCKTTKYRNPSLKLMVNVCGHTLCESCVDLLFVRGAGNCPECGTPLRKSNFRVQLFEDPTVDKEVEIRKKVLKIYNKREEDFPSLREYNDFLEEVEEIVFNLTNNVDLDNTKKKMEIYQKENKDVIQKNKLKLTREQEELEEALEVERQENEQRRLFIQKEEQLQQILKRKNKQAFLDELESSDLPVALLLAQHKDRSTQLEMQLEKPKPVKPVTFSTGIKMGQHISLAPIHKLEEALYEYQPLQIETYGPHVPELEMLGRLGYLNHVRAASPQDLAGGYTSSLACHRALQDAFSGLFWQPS
Test protocol: Inhibition of CDK7/CycH/MAT1 (unknown origin) by luciferase reporter gene assay
Reported pIC50 values are given for each entry in this list.
Schema: pIC50 number; meaning minus log10 of the concentration expressed in molar units.

pIC50 lookup needed for CC(C)c1cnn2c(NCc3ccccc3)cc(NC[C@]3(CO)CCNC3)nc12 , thanks.
7.85

Item: CC(C)c1cnn2c(NCc3ccccc3)cc(NCC3CCNCC3)nc12
6.51

Please give the result for CC(C)c1cnn2c(NCc3ccccc3)cc(NC[C@H]3CCCC[C@@H]3O)nc12 too.
6.16

----------
Target desc: Cyclin-dependent kinase 7 (Homo sapiens)
Test protocol: Inhibition of CDK7 (unknown origin) after 4 hrs
Value type: pIC50
Keep it numeric: pIC50 is minus log10 of the concentration in mol/L.

So what's the measured pIC50 for this one? Clc1cnc(NC2CCCCC2)nc1-c1c[nH]c2cccnc12
7.70

----------
Target desc: Cyclin-dependent kinase 1 (Homo sapiens, UniProt P06493)
Sequence (P06493 whole entry): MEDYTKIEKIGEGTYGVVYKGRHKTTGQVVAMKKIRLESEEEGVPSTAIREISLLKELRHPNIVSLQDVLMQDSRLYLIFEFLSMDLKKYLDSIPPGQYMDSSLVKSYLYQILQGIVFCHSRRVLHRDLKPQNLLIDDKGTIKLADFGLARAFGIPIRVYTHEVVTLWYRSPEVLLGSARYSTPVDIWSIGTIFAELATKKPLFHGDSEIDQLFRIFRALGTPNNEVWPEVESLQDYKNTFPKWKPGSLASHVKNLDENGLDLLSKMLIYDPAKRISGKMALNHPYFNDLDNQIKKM
Test protocol: Inhibition of CDK1 (unknown origin) by luciferase reporter gene assay
Reported values of pIC50 for individual entries
When answering, recall that pIC50 equals minus log10 of the concentration in mol/L, and write that number alone.

# Compound, Target desc, pIC50
data = [
    ("CC(C)c1cnn2c(NCc3ccccc3)cc(NC[C@]3(CO)CCNC3)nc12", "Cyclin-dependent kinase 1 (Homo sapiens, UniProt P06493)", 7.39),
]

Shifting focus to the molecule that follows.
Which pIC50 is reported for this molecule? CC(C)c1cnn2c(NCc3ccccc3)cc(NC[C@@H]3CCNC[C@H]3O)nc12
5.82
